- ASSAY INFO: Bioavailability in oral administration in mice
- Format: in vivo, ddY-strain male mice
- TEST CONTEXT: mouse, in vivo, po, 50 mg/kg
- Procedure: Each of the test compounds was suspended in a 0.5% sodium carboxymethylcellulose to prepare a suspension having a concentration of 5 mg/ml of the compound. ddY-strain male mice (5 week old, weighing 22 to 25 g, three per group) were used. The suspension was orally administered to mice fasted for 16 hours. The dose of the test compound was adjusted to 50 mg/kg of body weight of animal. […]
ASSAY ENDPOINT: concentration at 1 h
For clarity, give the value followed by its unit.

[ask] I would be grateful if you could share the reported concentration at 1 h for CCn1cc(C(=O)O)c(=O)c2cc(F)c(N3CCNCC3)c(F)c21 .
[reply] 3510 ng/mL

###

- ASSAY INFO: Bioavailability in oral administration in mice
- Assay type: in vivo, ddY-strain male mice
- TEST CONTEXT: mouse, serum; mice, oral 50 mg/kg, after 60 min.; read-out: Concentration in serum
Parameter threshold = 30000 ng/mL. Response is condition met when concentration at 1 h meets or exceeds it, else condition not met.

Use these answered entries as a reference point.
CCn1cc(C(=O)O)c(=O)c2cc(F)c(N3CCNCC3)cc21 | condition not met
CC1COc2c(-n3ccnc3)c(F)cc3c(=O)c(C(=O)O)cn1c23 (centres unmarked) | condition not met

[ask] Identify whether the reported concentration at 1 h of the following molecule is 30000 ng/mL or greater: CCn1cc(C(=O)O)c(=O)c2cc(F)c(N3CCN(C)CC3)c(F)c21
[reply] condition not met

[ask] concentration at 1 h >= 30000 ng/mL for CCn1cc(C(=O)O)c(=O)c2cc(F)c(-n3ccnc3)c(F)c21 ?
[reply] condition met

###

- ASSAY INFO: Bioavailability in oral administration in rats
- Format: in vivo, Wistar-strain male rats
- TEST CONTEXT: rat, in vivo, po
ASSAY ENDPOINT: concentration at 2 h
Give the value; after it, write the unit.

[ask] For CCn1cc(C(=O)O)c(=O)c2cc(F)c(N3CCNCC3)c(F)c21 [C] , what is its reported concentration at 2 h?
[reply] 6400 ng/mL

###

- ASSAY INFO: Bioavailability in oral administration in mice
- Type: in vivo, ddY-strain male mice
- TEST CONTEXT: mouse; mice, oral 50 mg/kg, serum, 1-4 hrs.; read-out: AUC
ASSAY ENDPOINT: AUC at 4 h (ng·h/mL)
API: value field is a number in ng·h/mL; no unit string.

Examples from the recorded data:
CCn1cc(C(=O)O)c(=O)c2cc(F)c(N3CCN(C)CC3)c(F)c21 [D] | 29300
CCn1cc(C(=O)O)c(=O)c2cc(F)c(-n3cnc(C)c3)c(F)c21 [I-b] | 67900
CCn1cc(C(=O)O)c(=O)c2cc(F)c(-n3ccnc3)c(F)c21 [I-a] | 64900

[ask] Can you look up the measured AUC at 4 h of CCn1cc(C(=O)O)c(=O)c2cc(F)c(N3CCNCC3)cc21 [Compound A] for me?
[reply] 2000
